The measurements presented in this section are drawn from ChEMBL document CHEMBL4627278.

Assay method text: Prodrug conversion in dog liver assessed as nucleotide triphosphate level at 5 mg/kg, po after 4 hrs
Type: ADME, organism-based, Canis lupus familiaris
Applied conditions: in vivo
Assay readout: Drug metabolism (µg/g)
State just the number; it will be interpreted in µg/g.

Observe how each entry below is paired with its result.
{"columns": ["Compound", "Readout value"],
 "data": [
  ["COCC(C)OC(=O)[C@H](C)NP(=O)(OC[C@H]1O[C@@H](n2ccc(=O)[nH]c2=O)[C@](Cl)(Br)[C@@H]1O)Oc1ccccc1 (stereo partly drawn)", 0.329],
  ["CC(C)OC(=O)[C@H](C)N[P@](=O)(OC[C@H]1O[C@@H](n2ccc(=O)[nH]c2=O)[C@](Cl)(Br)[C@@H]1O)Oc1ccccc1", 0.088],
  ["CCOC(=O)[C@H](C)NP(=O)(OC[C@H]1O[C@@H](n2ccc(=O)[nH]c2=O)[C@](Cl)(Br)[C@@H]1O)Oc1ccccc1 (stereo partly drawn)", 1.24],
  ["CC(C)OC(=O)C(C)(C)NP(=O)(OC[C@H]1O[C@@H](n2ccc(=O)[nH]c2=O)[C@](Cl)(Br)[C@@H]1O)Oc1ccccc1 (stereo partly drawn)", 0.713]
]}

Sure, the documented Drug metabolism for CC(C)OC(=O)[C@H](C)N[P@@](=O)(OC[C@H]1O[C@@H](n2ccc(=O)[nH]c2=O)[C@](Cl)(Br)[C@@H]1O)Oc1ccccc1 is 0.143

Sure, the documented Drug metabolism for CC(C)C(=O)OC[C@H](C)NP(=O)(OC[C@H]1O[C@@H](n2ccc(=O)[nH]c2=O)[C@](Cl)(Br)[C@@H]1O)Oc1ccccc1 (stereo partly drawn) is 0.252

Sure, the documented Drug metabolism for CCOC(=O)C(C)(C)NP(=O)(OC[C@H]1O[C@@H](n2ccc(=O)[nH]c2=O)[C@](Cl)(Br)[C@@H]1O)Oc1ccccc1 (stereo partly drawn) is 14.73

Sure, the documented Drug metabolism for CC(C)OC(=O)[C@H](C)N[P@](=O)(OC[C@H]1O[C@@H](n2ccc(=O)[nH]c2=O)[C@](Cl)(Br)[C@@H]1OC(=O)[C@@H](N)C(C)C)Oc1ccccc1 is 0.828

---

Assay method text: Stability in dog plasma assessed as parent compound remaining after 4 hrs
Assay type: ADME, cell-free, Canis lupus familiaris
Applied conditions: read-out: Stability
Mark Yes only when remaining at 4 h stays strictly below 90%. Values equal to the cut-off are No.

Worked set:
{"columns": ["Compound", "Cat"],
 "data": [
  ["COCC(C)OC(=O)[C@H](C)NP(=O)(OC[C@H]1O[C@@H](n2ccc(=O)[nH]c2=O)[C@](Cl)(Br)[C@@H]1O)Oc1ccccc1 (stereo partly specified)", "Yes"],
  ["CCOC(=O)[C@H](C)NP(=O)(OC[C@H]1O[C@@H](n2ccc(=O)[nH]c2=O)[C@](Cl)(Br)[C@@H]1O)Oc1ccccc1 (stereo partly specified)", "No"],
  ["CCOC(=O)C(C)(C)NP(=O)(OC[C@H]1O[C@@H](n2ccc(=O)[nH]c2=O)[C@](Cl)(Br)[C@@H]1O)Oc1ccccc1 (stereo partly specified)", "No"]
]}

Req: API: query returns whether the compound falls strictly under 90% in remaining at 4 h. Query: CC(C)OC(=O)C(C)(C)NP(=O)(OC[C@H]1O[C@@H](n2ccc(=O)[nH]c2=O)[C@](Cl)(Br)[C@@H]1O)Oc1ccccc1 (stereo partly specified)
Resp: No

Req: API: query returns whether the compound falls strictly under 90% in remaining at 4 h. Query: CC(C)C(=O)OC[C@H](C)NP(=O)(OC[C@H]1O[C@@H](n2ccc(=O)[nH]c2=O)[C@](Cl)(Br)[C@@H]1O)Oc1ccccc1 (stereo partly specified)
Resp: Yes

---

Assay method text: Prodrug conversion in dog liver assessed as (2S)-2-((((2R,3R,4R,5R)-4-bromo-4-chloro-5-(2,4-dioxo-3,4-dihydropyrimidin-1(2H)-yl)-3-hydroxytetrahydrofuran-2-yl)methoxy)(hydroxy)phosphorylamino)propanoic acid level at 5 mg/kg, po after 4 hrs
Type: ADME, organism-based, Canis lupus familiaris
Applied conditions: in vivo
Mark Condition met only when Drug metabolism stays strictly below 0.2 µg/g. Values equal to the cut-off are Condition not met.

Worked set:
{"columns": ["Molecule", "Cat"],
 "data": [
  ["CC(C)C(=O)OC[C@H](C)NP(=O)(OC[C@H]1O[C@@H](n2ccc(=O)[nH]c2=O)[C@](Cl)(Br)[C@@H]1O)Oc1ccccc1 (stereo partly specified)", "Condition met"],
  ["CCOC(=O)[C@H](C)NP(=O)(OC[C@H]1O[C@@H](n2ccc(=O)[nH]c2=O)[C@](Cl)(Br)[C@@H]1O)Oc1ccccc1 (stereo partly specified)", "Condition not met"],
  ["CC(C)OC(=O)[C@H](C)N[P@](=O)(OC[C@H]1O[C@@H](n2ccc(=O)[nH]c2=O)[C@](Cl)(Br)[C@@H]1O)Oc1ccccc1", "Condition met"],
  ["CC(C)OC(=O)[C@H](C)N[P@](=O)(OC[C@H]1O[C@@H](n2ccc(=O)[nH]c2=O)[C@](Cl)(Br)[C@@H]1OC(=O)[C@@H](N)C(C)C)Oc1ccccc1", "Condition not met"],
  ["CCOC(=O)C(C)(C)NP(=O)(OC[C@H]1O[C@@H](n2ccc(=O)[nH]c2=O)[C@](Cl)(Br)[C@@H]1O)Oc1ccccc1 (stereo partly specified)", "Condition not met"]
]}

With those in mind, consider the next molecule.
Req: API: query returns whether the molecule falls strictly under 0.2 µg/g in Drug metabolism. Query: CC(C)OC(=O)[C@H](C)N[P@@](=O)(OC[C@H]1O[C@@H](n2ccc(=O)[nH]c2=O)[C@](Cl)(Br)[C@@H]1O)Oc1ccccc1
Resp: Condition not met

---

Assay method text: Stability in human plasma assessed as parent compound remaining after 4 hrs
Assay type: ADME, cell-free
Applied conditions: read-out: Stability
Mark TRUE only when remaining at 4 h stays strictly below 90%. Values equal to the cut-off are FALSE.

Worked set:
{"columns": ["Compound", "Cat"],
 "data": [
  ["CCOC(=O)[C@H](C)NP(=O)(OC[C@H]1O[C@@H](n2ccc(=O)[nH]c2=O)[C@](Cl)(Br)[C@@H]1O)Oc1ccccc1 (stereo partly specified)", "TRUE"],
  ["COCC(C)OC(=O)[C@H](C)NP(=O)(OC[C@H]1O[C@@H](n2ccc(=O)[nH]c2=O)[C@](Cl)(Br)[C@@H]1O)Oc1ccccc1 (stereo partly specified)", "TRUE"]
]}

Req: API: query returns whether the compound falls strictly under 90% in remaining at 4 h. Query: CCOC(=O)C(C)(C)NP(=O)(OC[C@H]1O[C@@H](n2ccc(=O)[nH]c2=O)[C@](Cl)(Br)[C@@H]1O)Oc1ccccc1 (stereo partly specified)
Resp: FALSE

Req: API: query returns whether the compound falls strictly under 90% in remaining at 4 h. Query: CC(C)OC(=O)C(C)(C)NP(=O)(OC[C@H]1O[C@@H](n2ccc(=O)[nH]c2=O)[C@](Cl)(Br)[C@@H]1O)Oc1ccccc1 (stereo partly specified)
Resp: FALSE

Req: API: query returns whether the compound falls strictly under 90% in remaining at 4 h. Query: CC(C)C(=O)OC[C@H](C)NP(=O)(OC[C@H]1O[C@@H](n2ccc(=O)[nH]c2=O)[C@](Cl)(Br)[C@@H]1O)Oc1ccccc1 (stereo partly specified)
Resp: TRUE

---

# Lookup of reported log10 of Drug metabolism keyed by entry
Assay method text: Prodrug conversion in human hepatocytes assessed as nucleotide triphosphate level at 100 uM incubated for 4 hrs followed by compound washout and further incubated in fresh media for 24 hrs
Type: ADME, cell-based, Hepatocyte
// do not treat as linear: log10 of Drug metabolism, unit µM

Observe how each entry below is paired with its result.
{"columns": ["Compound", "log10 of Drug metabolism"],
 "data": [
  ["CC(C)OC(=O)C(C)(C)NP(=O)(OC[C@H]1O[C@@H](n2ccc(=O)[nH]c2=O)[C@](Cl)(Br)[C@@H]1O)Oc1ccccc1 (some centres undefined)", 1.60],
  ["CCOC(=O)C(C)(C)NP(=O)(OC[C@H]1O[C@@H](n2ccc(=O)[nH]c2=O)[C@](Cl)(Br)[C@@H]1O)Oc1ccccc1 (some centres undefined)", 1.63],
  ["COCC(=O)OC[C@H](C)NP(=O)(OC[C@H]1O[C@@H](n2ccc(=O)[nH]c2=O)[C@](Cl)(Br)[C@@H]1O)Oc1ccccc1 (some centres undefined)", 1.20],
  ["CC(C)C(=O)OC[C@H](C)NP(=O)(OC[C@H]1O[C@@H](n2ccc(=O)[nH]c2=O)[C@](Cl)(Br)[C@@H]1O)Oc1ccccc1 (some centres undefined)", 1.51],
  ["COCC(C)C(=O)OC[C@H](C)NP(=O)(OC[C@H]1O[C@@H](n2ccc(=O)[nH]c2=O)[C@](Cl)(Br)[C@@H]1O)Oc1ccccc1 (some centres undefined)", 1.38],
  ["CC(C)OC(=O)[C@H](C)N[P@](=O)(OC[C@H]1O[C@@H](n2ccc(=O)[nH]c2=O)[C@](Cl)(Br)[C@@H]1O)Oc1ccccc1", 1.34]
]}

Sure, the documented log10 of Drug metabolism for CCOC(=O)[C@H](C)N[P@@](=O)(OC[C@H]1O[C@@H](n2ccc(=O)[nH]c2=O)[C@](Cl)(Br)[C@@H]1O)Oc1ccccc1 is 1.59

Sure, the documented log10 of Drug metabolism for CC(C)OC(=O)[C@H](C)N[P@@](=O)(OC[C@H]1O[C@@H](n2ccc(=O)[nH]c2=O)[C@](Cl)(Br)[C@@H]1O)Oc1ccccc1 is 1.38

Sure, the documented log10 of Drug metabolism for COCC(C)OC(=O)[C@H](C)NP(=O)(OC[C@H]1O[C@@H](n2ccc(=O)[nH]c2=O)[C@](Cl)(Br)[C@@H]1O)Oc1ccccc1 (some centres undefined) is 1.49
